B1: library; a variant is named by its letters at N, in order (parent)
chain: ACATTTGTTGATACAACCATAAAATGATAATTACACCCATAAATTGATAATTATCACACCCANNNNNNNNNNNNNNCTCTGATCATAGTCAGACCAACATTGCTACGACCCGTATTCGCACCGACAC

- Variants of: B1
- ASSAY_NAME: relative integration efficiency (T-RL orientation) vs wild-type transposon end (log2 (normalized fold change)); transposon end mutated: right end (5 bp flank + 75 bp right end); higher = more efficient transposition
- RUN_CONDITIONS: with VchCAST RNA-guided transposition machinery (E. coli BL21(DE3) host, lacZ target)
Documented relative integration efficiency (log2) across a set of variants
REPORTED_ENDPOINT: relative integration efficiency (log2)

* ACATTTGTTGATACAACCATAAAATGATAATTAGACCCATAAATTGATAATTATCACACCCATAAATTGATATTGCCTCTGATCATAGTCAGACCAACATTGCTACGACCCGTATTCGCACCGACAC [TAAATTGATATTGC C34G] | -0.73
* ACATTTGTTGATACAACCATAAAATGATCATTACACCCATAAATTGATAATTATCACACCCAATTTAACTATAACGCTCTGATCATAGTCAGACCAACATTGCTACGACCCGTATTCGCACCGACAC [ATTTAACTATAACG A29C] | -1.83
* ACATTTGTTGATACAACCATAAAATGATAATTACACCCATATATTGATAATTATCACACCCAATTTAACTATAACGCTCTGATCATAGTCAGACCAACATTGCTACGACCCGTATTCGCACCGACAC [ATTTAACTATAACG A42T] | -0.805
